- System: Plasmodium berghei
- assayComment: Screen against P. berghei liver stage (PbLuc), transformed with Luciferase, at 10uM
- Type: functional, HepG2
- conditionSet: tested at 10 uM
Screen size: about 69,000 compounds; about 8,600 (12%) showed an effect of 50% or more. Many of the other results were omitted from the sample, so strong results are more common in it than they were.
reportedMetric: INHIBITION

Cc1cc(C)n(CC(=O)N2CCCC2c2cc3cccnc3[nH]2)n1 (centres undefined); 9.05%
CCCC(O)CN1CC(C)(C)CN(C(=O)c2ccc(Cl)cc2)CC1=O (centres undefined); 46.4%
c1cncc(CNc2cccc(OCCN3CCCCC3)c2)c1; 68%
CCN1CCOCC2(CCCN(C(=O)c3cnccn3)C2)C1 (centres undefined); -8.51%
Cc1nc2c(c(NC3CCN(Cc4ccccc4)CC3)n1)CCNCC2; -4.28%
CCOC(=O)c1sc2ccsc2c1CNC(=O)C(C)(C)C#N; 20.6%
O=C(c1ccoc1)N(Cc1ccccn1)C1CC1; -0.87%
Cc1cc(CN2CCC3(CC2)COC(COc2ccccn2)C3)no1 (centres undefined); -19.8%
CC[C@@H]1N(Cc2nccs2)CCC[C@]12CCC(=O)N2CCOC; 16.4%
Cc1cc(C(F)(F)F)nn1C(C)C(=O)Nc1ccc(Cl)cn1 (centres undefined); 47.4%
CCC(C(=O)N(C)Cc1cc(C2CC2)[nH]n1)n1cccn1 (centres undefined); -33.5%
COCCN1CC(C(=O)N(C)Cc2csc(C)n2)CC1=O (centres undefined); 57.8%
CCOC(=O)c1sc2ccsc2c1CNC(=O)COC; 19.933%
CCc1n[nH]c(C2CN(C(=O)CCOCC(F)(F)F)CCO2)n1 (centres undefined); 1.45%
CCC(CC)C(O)CNC(=O)Nc1cccc(-c2nccn2C)c1 (centres undefined); 50.8%
c1ccc(NCc2cccc(OCCN3CCOCC3)c2)nc1; -8.25%
CCOC(=O)c1sc2ccsc2c1CNC(=O)C(C)OC (centres undefined); 17.8%
CN(Cc1cccs1)C(=O)CN1C(=O)c2cc(Cl)c(Cl)cc2C1=O; 14.8%
CCOC(=O)c1sc2ccsc2c1CNC(=O)CC; 57.2%

====

- Test system: Plasmodium berghei
- assayComment: Screen against P. berghei liver stage (PbLuc), transformed with Luciferase, at 10uM
- Type: functional, HepG2
- conditionSet: tested at 10 uM
The campaign covered roughly 69,000 compounds. About 8,600 (12%) showed an effect of 50% or more. Shown is part of a subset that was picked to be rich in strong results.
As shown below, each of these compounds has a reported INHIBITION value.
reportedMetric: INHIBITION (%)

CC(C)Nc1cc(-c2c[nH]nc2C2CCN(C(=O)C3CC3)C2)ccn1 (stereo not given); 87.85
CNC(=O)CCS(=O)(=O)Cc1coc(-c2ccc(F)cc2)n1; 7.43
CC(Oc1ccc2c(c1)OCO2)C(=O)N1CCC(N2CCOCC2)CC1 (stereo not given); 63
Cc1ccc(-c2nc(CCNC(=O)NCC(C)(C)C(N)=O)co2)cc1; 27.6
Cc1ccc(-c2nc(CSCCC(=O)NC(N)=O)co2)cc1; 89.6

====

As shown below, each of these compounds has a reported INHIBITION value.
- Tested on: Plasmodium berghei
- assayComment: Screen against P. berghei liver stage (PbLuc), transformed with Luciferase, at 10uM
- Assay type: functional, HepG2
- conditionSet: tested at 10 uM
Hit rate of the full screen: of about 69,000 compounds, about 8,600 (12%) showed an effect of 50% or more. The list comes from a sample in which strong results are over-represented; it also holds close analogues and randomly drawn compounds.
reportedMetric: INHIBITION (%)

CCc1nnc(C(C)N2CCN(CCC(=O)NC3CC3)CC2)o1 (stereo not drawn); 33.1
CCc1nnc(C(C)N2CCN(CCC(C)(C)C)CC2)o1 (stereo not drawn); 62.4
CCc1nnc(C(C)N2CCCN(C(=O)OCC(C)C)CC2)o1 (stereo not drawn); 36.5

====

- Tested on: Plasmodium berghei
- assayComment: Screen against P. berghei liver stage (PbLuc), transformed with Luciferase, at 10uM
- Type: functional, HepG2
- conditionSet: tested at 10 uM
In all, about 69,000 compounds went through this assay and about 8,600 (12%) showed an effect of 50% or more. This excerpt belongs to a sample that is enriched for strong results.
Label Yes when INHIBITION is at or above 40%; otherwise label No.

COCC(=O)N1CCCCC1c1ccnc(Nc2ncc(C)s2)n1 (stereo unspecified); Yes
Cc1cnc(N2CC[C@@H]3O[C@@H](COCc4ccccn4)CC[C@@H]32)nc1; Yes
CCN(Cc1nc(C)no1)C(=O)C1CC(=O)N(Cc2cccnc2)C1 (stereo unspecified); No
Cn1cnc2c1CCN(Cc1cccc(C(=O)N3CCCCC3)c1)C2; No
CCc1noc(CN(CC)C(=O)C2CC(=O)N(Cc3ccncc3)C2)n1 (stereo unspecified); Yes
CNCC1CCC(c2cc(CN(C)S(=O)(=O)N(C)C)n(C)n2)CC1 (stereo unspecified); Yes

====

As shown below, each of these molecules has a reported INHIBITION value.
- Test system: Plasmodium berghei
- assayComment: Screen against P. berghei liver stage (PbLuc), transformed with Luciferase, at 10uM
- Type: functional, HepG2
- conditionSet: tested at 10 uM
Screen size: about 69,000 compounds; about 8,600 (12%) showed an effect of 50% or more. What follows is part of a selection rich in strong results, with near analogues and random picks from the rest.
reportedMetric: INHIBITION (%)

Cc1ccc2c(n1)N(CCN(C)C)CCN(C(=O)c1ccc[nH]1)C2; 10.8
CCC1=N[C@@]2(CC[C@@H]3CN(CC4CC4)C[C@@H]32)C(=O)N1CC; 7.31
CN1CCN(C(=O)c2[nH]nnc2Nc2ccccc2F)CC1; 5.18
Cc1ccc2c(n1)N(CCN(C)C)CCN(C(=O)c1cscn1)C2; 38.1
CNC(=O)NC(=O)CCSc1ccccc1C; 29.8
Cc1ccc2c(n1)N(CCN(C)C)CCN(C(=O)c1cccs1)C2; 74.2
CS(=O)(=O)N1C[C@@H]2COC[C@H](C(=O)Nc3cnccn3)[C@@H]2C1; 45.2
CNC(=O)Cc1noc(Cc2ccc3c(c2)CCCC3)n1; 15.9
CCc1nc(C)c(CN2CCOC(Cc3cccc4ccccc34)C2)[nH]1 (stereo unspecified); 18.6
Cc1ccc2c(n1)N(CCN(C)C)CCN(C(=O)c1ccco1)C2; 54.4
O=C(NC1CC1)[C@H]1COC[C@H]2CN(c3ncc(F)cn3)C[C@H]21; 58.5
O=C([C@H]1COC[C@H]2CN(c3ncc(F)cn3)C[C@H]21)N1CCOCC1; -0.554
CCc1nc(C)c(CN2CCOC(Cc3ccccc3Cl)C2)[nH]1 (stereo unspecified); 24.2
CN1CCN(C)C(CNC(=O)N(C)Cc2ccccc2Cl)C1 (stereo unspecified); 17.1
Cc1ccc2c(n1)N(CCN(C)C)CCN(C(=O)c1ccoc1)C2; 48.6
Cc1nn(C)c(N(C)C)c1CNCC(O)COc1ccccc1 (stereo unspecified); -56.9

====

- Tested on: Plasmodium berghei
- assayComment: Screen against P. berghei liver stage (PbLuc), transformed with Luciferase, at 10uM
- Type: functional, HepG2
- conditionSet: tested at 10 uM
Out of some 69,000 compounds screened, about 8,600 (12%) showed an effect of 50% or more. The full list was thinned out, with strong results kept by preference.
As shown below, each of these compounds has a reported INHIBITION value.
reportedMetric: INHIBITION (%)

O=C(CO)N1CCCC2(CCC(=O)N(CC3CC3)C2)C1 (centres undefined); 33
COc1ccc(CNC(=O)Nc2cccnc2OC)cc1O; 9.54
CN(C)C(=O)N1CCC2(CC1)COCCN(c1ncccn1)C2; -30
c1cc(CNCc2ccnc(N3CCCC3)c2)c2c(c1)OCCCO2; 98.3
CCc1ccc(S(=O)(=O)Nc2cc(C(=O)O)ccc2F)s1; 13.85
COc1cccc(CNCc2ccnc(N3CCOCC3)c2)c1OC; 50.5
c1cnc(N2CCC3(COCCN(CC4CC4)C3)C2)nc1 (centres undefined); 46.1
NCC1Cc2cc(-c3nccc(N4CCC(O)CC4)n3)cc(Cl)c2O1 (centres undefined); 43.9
COc1ccc(CNCc2ccnc(N3CCOCC3)c2)cc1OC; 27.1
OC(COc1ccccc1)CN1CCc2c(ncn2C2CC2)C1 (centres undefined); 5.97
CCn1cc(CNc2ccc(F)c(F)c2)cn1; -8
c1cc(CNCc2ccnc(N3CCCC3)c2)c2c(c1)OCO2; -17.2
CCCn1c(C)c(CC(=O)N(C)CCO)c2c1CC(C)(C)CC2=O; 48.1
c1cc(CNCc2ccnc(N3CCOCC3)c2)c2c(c1)OCCCO2; 26.4
Cn1ccnc1CN1CCC2(CC1)COC2; 61.3
CN(C(=O)CCNC(=O)NC1CCCCC1)c1ccccc1; 27.6
CN(Cc1ccco1)C(=O)C1CSCN1C(=O)C1CCC1 (centres undefined); -16
Cn1cc(CN2C[C@H]3CCC[C@@H](CNc4nccn4C)[C@H]3C2)cn1; 23.1
CCC(C)(C)NC(=O)CN1C=Nc2ccccc2S1(=O)=O; 19.6
Cc1n[nH]c(=O)c(C(=O)N2CCN(CCc3cccs3)CC2)c1C; -36.1
O=C([C@H]1CN(Cc2nccs2)C[C@H]2OCC[C@@H]12)N1CCCCO1; 22.2
CNS(=O)(=O)c1cc(C(=O)NC2COc3ccccc32)cc(C)c1C (centres undefined); 18.4
CCCn1nnnc1COC(=O)C1COc2ccccc2O1 (centres undefined); 49
Cn1ccnc1CN1CCC2(COCCN(Cc3ccsc3)C2)C1 (centres undefined); 25.1
